biological target: DNA-dependent protein kinase catalytic subunit (Homo sapiens, UniProt P78527); assay: Inhibition of DNA-dependent protein kinase
Sequence (P78527 whole entry): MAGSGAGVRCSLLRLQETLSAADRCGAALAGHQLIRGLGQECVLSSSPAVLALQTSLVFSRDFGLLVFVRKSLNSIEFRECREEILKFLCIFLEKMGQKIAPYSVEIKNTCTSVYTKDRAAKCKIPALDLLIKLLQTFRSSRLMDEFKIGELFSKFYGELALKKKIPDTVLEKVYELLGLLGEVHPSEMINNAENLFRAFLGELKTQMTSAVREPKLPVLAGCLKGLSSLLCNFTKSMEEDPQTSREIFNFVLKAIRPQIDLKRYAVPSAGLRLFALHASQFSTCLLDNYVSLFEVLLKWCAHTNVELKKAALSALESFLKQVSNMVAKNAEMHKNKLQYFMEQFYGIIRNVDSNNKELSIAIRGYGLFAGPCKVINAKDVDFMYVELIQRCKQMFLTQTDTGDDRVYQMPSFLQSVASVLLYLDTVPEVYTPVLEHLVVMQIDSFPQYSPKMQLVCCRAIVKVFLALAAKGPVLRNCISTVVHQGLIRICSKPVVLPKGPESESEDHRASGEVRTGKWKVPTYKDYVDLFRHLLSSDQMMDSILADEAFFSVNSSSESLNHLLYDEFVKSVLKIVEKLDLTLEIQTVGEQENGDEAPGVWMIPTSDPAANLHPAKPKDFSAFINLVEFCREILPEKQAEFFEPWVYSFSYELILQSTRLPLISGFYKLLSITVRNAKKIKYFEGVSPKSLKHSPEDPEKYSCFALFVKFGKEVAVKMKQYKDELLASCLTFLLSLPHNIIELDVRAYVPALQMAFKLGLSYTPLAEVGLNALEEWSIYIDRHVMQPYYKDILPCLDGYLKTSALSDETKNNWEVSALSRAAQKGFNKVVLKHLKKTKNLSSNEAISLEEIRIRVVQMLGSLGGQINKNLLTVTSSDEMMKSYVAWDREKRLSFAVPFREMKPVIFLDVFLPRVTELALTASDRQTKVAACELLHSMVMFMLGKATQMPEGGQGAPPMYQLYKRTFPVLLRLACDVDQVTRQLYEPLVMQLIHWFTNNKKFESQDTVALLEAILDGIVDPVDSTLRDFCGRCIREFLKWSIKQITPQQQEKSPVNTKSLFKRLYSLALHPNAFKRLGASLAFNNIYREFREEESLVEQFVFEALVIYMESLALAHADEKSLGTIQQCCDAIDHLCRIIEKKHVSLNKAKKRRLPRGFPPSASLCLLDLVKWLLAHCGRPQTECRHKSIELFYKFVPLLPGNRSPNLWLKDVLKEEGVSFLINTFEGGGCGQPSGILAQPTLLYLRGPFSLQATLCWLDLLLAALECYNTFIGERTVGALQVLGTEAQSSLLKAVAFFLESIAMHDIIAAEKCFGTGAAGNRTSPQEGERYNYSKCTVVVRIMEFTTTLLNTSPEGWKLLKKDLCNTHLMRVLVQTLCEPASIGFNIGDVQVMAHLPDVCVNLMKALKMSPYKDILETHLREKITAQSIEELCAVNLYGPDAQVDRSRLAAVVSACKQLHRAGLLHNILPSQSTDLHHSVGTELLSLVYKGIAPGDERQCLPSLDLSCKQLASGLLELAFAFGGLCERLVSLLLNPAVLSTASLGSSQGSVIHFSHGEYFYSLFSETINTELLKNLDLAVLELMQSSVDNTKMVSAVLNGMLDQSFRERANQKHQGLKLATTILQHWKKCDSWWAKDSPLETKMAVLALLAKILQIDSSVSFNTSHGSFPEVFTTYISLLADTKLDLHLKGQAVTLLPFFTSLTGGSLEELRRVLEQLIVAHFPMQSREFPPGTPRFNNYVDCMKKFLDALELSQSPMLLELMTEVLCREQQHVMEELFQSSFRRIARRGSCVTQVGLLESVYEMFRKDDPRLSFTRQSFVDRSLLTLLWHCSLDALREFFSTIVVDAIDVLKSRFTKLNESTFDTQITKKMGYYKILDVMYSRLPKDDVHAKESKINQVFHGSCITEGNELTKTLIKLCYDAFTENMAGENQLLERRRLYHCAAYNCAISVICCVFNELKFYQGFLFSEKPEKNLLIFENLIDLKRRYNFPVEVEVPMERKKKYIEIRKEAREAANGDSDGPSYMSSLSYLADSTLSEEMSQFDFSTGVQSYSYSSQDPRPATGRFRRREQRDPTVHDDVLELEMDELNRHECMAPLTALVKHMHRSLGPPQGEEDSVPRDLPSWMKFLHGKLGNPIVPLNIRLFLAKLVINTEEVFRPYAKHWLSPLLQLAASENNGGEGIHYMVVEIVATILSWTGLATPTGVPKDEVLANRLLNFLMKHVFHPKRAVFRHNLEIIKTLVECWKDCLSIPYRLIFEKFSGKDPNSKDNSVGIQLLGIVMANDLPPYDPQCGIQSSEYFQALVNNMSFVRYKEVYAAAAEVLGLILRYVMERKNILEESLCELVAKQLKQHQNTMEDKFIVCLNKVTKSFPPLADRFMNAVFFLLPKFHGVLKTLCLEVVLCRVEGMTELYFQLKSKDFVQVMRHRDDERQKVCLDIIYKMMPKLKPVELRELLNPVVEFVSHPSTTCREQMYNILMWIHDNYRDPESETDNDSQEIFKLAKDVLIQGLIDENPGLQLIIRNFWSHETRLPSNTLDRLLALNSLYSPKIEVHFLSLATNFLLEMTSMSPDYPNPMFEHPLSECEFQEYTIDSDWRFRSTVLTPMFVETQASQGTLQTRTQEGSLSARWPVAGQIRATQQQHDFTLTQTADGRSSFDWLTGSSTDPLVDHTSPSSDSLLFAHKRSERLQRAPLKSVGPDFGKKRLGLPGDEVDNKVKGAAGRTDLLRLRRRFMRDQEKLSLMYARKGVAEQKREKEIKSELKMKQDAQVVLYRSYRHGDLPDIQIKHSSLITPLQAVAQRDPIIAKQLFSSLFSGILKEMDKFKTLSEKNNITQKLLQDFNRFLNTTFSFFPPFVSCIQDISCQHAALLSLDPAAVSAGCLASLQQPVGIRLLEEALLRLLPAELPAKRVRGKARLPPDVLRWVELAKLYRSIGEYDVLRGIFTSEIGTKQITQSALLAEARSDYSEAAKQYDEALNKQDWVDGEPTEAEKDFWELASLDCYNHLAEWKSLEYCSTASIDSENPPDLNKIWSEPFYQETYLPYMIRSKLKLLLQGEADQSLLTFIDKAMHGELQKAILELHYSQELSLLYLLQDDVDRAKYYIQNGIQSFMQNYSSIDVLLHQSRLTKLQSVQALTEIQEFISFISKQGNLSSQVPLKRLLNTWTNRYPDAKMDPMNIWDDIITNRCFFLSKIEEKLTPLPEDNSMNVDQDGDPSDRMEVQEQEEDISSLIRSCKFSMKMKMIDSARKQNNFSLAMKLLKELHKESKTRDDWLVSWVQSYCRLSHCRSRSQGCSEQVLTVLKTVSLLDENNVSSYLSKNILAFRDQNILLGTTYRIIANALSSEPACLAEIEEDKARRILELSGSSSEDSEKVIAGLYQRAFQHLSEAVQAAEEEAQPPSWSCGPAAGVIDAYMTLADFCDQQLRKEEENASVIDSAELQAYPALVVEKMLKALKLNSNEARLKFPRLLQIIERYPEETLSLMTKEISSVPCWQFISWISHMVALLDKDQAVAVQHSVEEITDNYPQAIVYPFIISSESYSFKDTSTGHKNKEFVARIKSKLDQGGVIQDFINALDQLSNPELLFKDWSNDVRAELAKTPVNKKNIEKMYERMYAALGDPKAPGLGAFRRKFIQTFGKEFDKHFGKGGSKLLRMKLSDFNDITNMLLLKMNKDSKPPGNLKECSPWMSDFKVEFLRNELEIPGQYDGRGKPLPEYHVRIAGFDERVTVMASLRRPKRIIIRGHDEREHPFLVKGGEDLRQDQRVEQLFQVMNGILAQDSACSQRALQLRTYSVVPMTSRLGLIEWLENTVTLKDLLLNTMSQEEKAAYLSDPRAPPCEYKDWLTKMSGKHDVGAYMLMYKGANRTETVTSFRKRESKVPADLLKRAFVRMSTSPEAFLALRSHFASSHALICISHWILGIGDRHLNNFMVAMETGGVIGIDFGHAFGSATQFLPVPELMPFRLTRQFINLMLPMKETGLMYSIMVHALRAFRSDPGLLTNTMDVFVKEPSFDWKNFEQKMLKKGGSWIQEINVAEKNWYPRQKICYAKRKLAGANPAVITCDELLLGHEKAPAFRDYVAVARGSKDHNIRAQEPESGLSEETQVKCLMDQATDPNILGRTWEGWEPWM
pIC50: −log10 of the molar value.
experimental-endpoint: pIC50

Please review the entries below; each comes with its answer.
query: // returns reported pIC50 for input O=c1oc(N2CCOCC2)cc2c(-c3ccccc3)cccc12
result: 5.59

query: # input molecule: CCN1CCN(CC(=O)Nc2ccc(-c3cccc4c(=O)cc(N5CCOCC5)oc34)c3sc4ccccc4c23)CC1 ; wanted: its pIC50
result: 8.30

query: Need pIC50, item COc1ccc2oc(=O)cc(N3CCOCC3)c2c1
result: 5.77

query: Report pIC50 for O=c1cc(N2CCOCC2)c2ccc(-c3cccs3)cc2o1 please.
result: 6.22

query: What does the data say about its pIC50? Entry: O=c1cc(N2CCOCC2)c2ccc(-c3ccccc3)cc2o1
result: 5.77

[1] COc1cccc2c(=O)oc(N3CCOCC3)cc12
[2] O=c1oc(N2CCOCC2)cc2c(-c3cccc4c3oc3ccccc34)cccc12
[3] COc1ccc2c(N3CCOCC3)cc(=O)oc2c1
[4] O=c1cc(N2CCOCC2)c2cc(-c3cccc(-c4ccccc4)c3)ccc2o1
[5] O=c1cc(N2CCOCC2)oc2c(-c3cccc4c3sc3ccccc34)cccc12
query: List from greatest to least pIC50. Please write the labels in the order that was asked for.
result: 5, 2, 4, 1, 3
(5: 7.52, 2: 6.48, 4: 5.80, 1: 5.49, 3: 5.27)

src = ChEMBL document CHEMBL1155542
